system.tested: P2Y purinoceptor 4 (Homo sapiens, UniProt P51582)
Sequence (P51582 whole entry): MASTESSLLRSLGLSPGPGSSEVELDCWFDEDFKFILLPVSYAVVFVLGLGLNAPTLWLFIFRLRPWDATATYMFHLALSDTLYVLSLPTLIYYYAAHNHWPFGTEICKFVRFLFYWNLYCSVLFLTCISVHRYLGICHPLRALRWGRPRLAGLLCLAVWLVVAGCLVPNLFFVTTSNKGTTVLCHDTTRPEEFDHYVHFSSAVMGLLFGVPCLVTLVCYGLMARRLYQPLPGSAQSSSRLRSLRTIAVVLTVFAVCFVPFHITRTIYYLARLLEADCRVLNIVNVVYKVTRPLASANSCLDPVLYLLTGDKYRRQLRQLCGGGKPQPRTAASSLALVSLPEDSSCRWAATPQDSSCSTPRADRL
test.name: Antagonist activity at human P2Y purinoceptor 4 expressed in human 1321N1 cells assessed as inhibition of UTP-induced increase in intracellular calcium concentration by spectrofluorimetry
Type: functional, cell-based
Active and inactive are the calls of the source. No cut-off for these calls is given here.

compound: BP(=O)(OC[C@H]1O[C@@H](n2cnc3c(N)ncnc32)[C@H](O)[C@@H]1O)OP(=O)(O)OP(=O)(O)OP(=O)(O)OC[C@H]1O[C@@H](n2cnc3c(N)ncnc32)[C@H](O)[C@@H]1O.CCCCN(CCCC)CCCC.CCCCN(CCCC)CCCC.CCCCN(CCCC)CCCC.CCCCN(CCCC)CCCC (stereo in doubt; 12A)
system.tested: P2Y purinoceptor 4 (Homo sapiens, UniProt P51582)
Activity: inactive

compound: BP(=O)(OC[C@H]1O[C@@H](n2ccc(=O)[nH]c2=O)[C@H](O)[C@@H]1O)OP(=O)(O)OP(=O)(O)OC[C@H]1O[C@@H](n2ccc(=O)[nH]c2=O)[C@H](O)[C@@H]1O.CCCCN(CCCC)CCCC.CCCCN(CCCC)CCCC.CCCCN(CCCC)CCCC (stereo in doubt; 11B)
system.tested: P2Y purinoceptor 4 (Homo sapiens, UniProt P51582)
Activity: inactive

compound: BP(=O)(OC[C@H]1O[C@@H](n2ccc(=O)[nH]c2=O)[C@H](O)[C@@H]1O)OP(=O)(O)OP(=O)(O)OP(=O)(O)OC[C@H]1O[C@@H](n2ccc(=O)[nH]c2=O)[C@H](O)[C@@H]1O.CCCCN(CCCC)CCCC.CCCCN(CCCC)CCCC.CCCCN(CCCC)CCCC.CCCCN(CCCC)CCCC (stereo in doubt; 13B)
system.tested: P2Y purinoceptor 4 (Homo sapiens, UniProt P51582)
Activity: inactive

* * *

system.tested: P2Y purinoceptor 2 (Homo sapiens)
Sequence (P41231 whole entry): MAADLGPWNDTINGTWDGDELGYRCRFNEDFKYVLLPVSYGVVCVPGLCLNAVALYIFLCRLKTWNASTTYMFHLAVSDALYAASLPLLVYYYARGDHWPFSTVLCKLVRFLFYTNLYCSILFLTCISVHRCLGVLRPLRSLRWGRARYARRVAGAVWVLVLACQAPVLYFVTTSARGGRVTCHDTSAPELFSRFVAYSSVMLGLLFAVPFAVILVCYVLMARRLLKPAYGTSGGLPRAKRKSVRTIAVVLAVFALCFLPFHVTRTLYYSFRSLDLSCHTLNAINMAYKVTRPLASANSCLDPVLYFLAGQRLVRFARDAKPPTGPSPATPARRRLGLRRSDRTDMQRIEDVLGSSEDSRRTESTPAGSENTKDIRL
test.name: Agonist activity at human P2Y purinoceptor 2 expressed in human 1321N1 cells assessed as increase in intracellular calcium concentration by spectrofluorimetry
Type: functional, cell-based
measurement.parameters: 1321-n1
recorded.metric: EC50

compound: BP(=O)(OP(=O)(O)OC[C@H]1O[C@@H](n2cnc3c(N)ncnc32)[C@H](O)[C@@H]1O)OP(=O)(O)OP(=O)(O)OC[C@H]1O[C@@H](n2ccc(=O)[nH]c2=O)[C@H](O)[C@@H]1O.CCCCN(CCCC)CCCC.CCCCN(CCCC)CCCC.CCCCN(CCCC)CCCC.CCCCN(CCCC)CCCC (stereo in doubt; 8A)
reported: Not Active
//
compound: BP(=O)(OC[C@H]1O[C@@H](n2ccc(=O)[nH]c2=O)[C@H](O)[C@@H]1O)OP(=O)(O)OP(=O)(O)OC[C@H]1O[C@@H](n2ccc(=O)[nH]c2=O)[C@H](O)[C@@H]1O.CCCCN(CCCC)CCCC.CCCCN(CCCC)CCCC.CCCCN(CCCC)CCCC (stereo in doubt; 11A)
reported: Not Active
//
compound: BP(=O)(OP(=O)(O)OC[C@H]1O[C@@H](n2ccc(=O)[nH]c2=O)[C@H](O)[C@@H]1O)OP(=O)(O)OP(=O)(O)OC[C@H]1O[C@@H](n2cnc3c(N)ncnc32)[C@H](O)[C@@H]1O.CCCCN(CCCC)CCCC.CCCCN(CCCC)CCCC.CCCCN(CCCC)CCCC.CCCCN(CCCC)CCCC (stereo in doubt; 9B)
reported: Not Active

* * *

system.tested: P2Y purinoceptor 2 (Homo sapiens)
test.name: Agonist activity at human P2Y purinoceptor 2 expressed in human 1321N1 cells assessed as increase in intracellular calcium concentration by spectrofluorimetry
Type: functional, cell-based
measurement.parameters: 1321-n1
recorded.metric: EC50

molecule: BP(=O)(OC[C@H]1O[C@@H](n2cnc3c(N)ncnc32)[C@H](O)[C@@H]1O)OP(=O)(O)OP(=O)(O)OC[C@H]1O[C@@H](n2cnc3c(N)ncnc32)[C@H](O)[C@@H]1O.CCCCN(CCCC)CCCC.CCCCN(CCCC)CCCC.CCCCN(CCCC)CCCC (stereo in doubt; 10A)
reported: Not Active
//
molecule: BP(=O)(OP(=O)(O)OC[C@H]1O[C@@H](n2ccc(=O)[nH]c2=O)[C@H](O)[C@@H]1O)OP(=O)(O)OP(=O)(O)OC[C@H]1O[C@@H](n2ccc(=O)[nH]c2=O)[C@H](O)[C@@H]1O.CCCCN(CCCC)CCCC.CCCCN(CCCC)CCCC.CCCCN(CCCC)CCCC.CCCCN(CCCC)CCCC (stereo in doubt; 7B)
reported: Not Active
//
molecule: BP(=O)(OP(=O)(O)OC[C@H]1O[C@@H](n2cnc3c(N)ncnc32)[C@H](O)[C@@H]1O)OP(=O)(O)OP(=O)(O)OC[C@H]1O[C@@H](n2cnc3c(N)ncnc32)[C@H](O)[C@@H]1O.CCCCN(CCCC)CCCC.CCCCN(CCCC)CCCC.CCCCN(CCCC)CCCC.CCCCN(CCCC)CCCC (stereo in doubt; 6A)
reported: Not Active

* * *

Test system: e-NPP1
test.name: Stability of the compound assessed as human e-NPP1-mediated hydrolysis at pH 8.5 after 20 mins by HPLC analysis
Type: ADME
measurement.parameters: human, human e-NPP1 enzyme, pH 8.5; read-out: Drug degradation
Reported metabolised at 20 min values for the following compounds.
Give the quantity in %, number only.

Prompt line: Item under review: BP(=O)(OP(=O)(O)OC[C@H]1O[C@@H](n2ccc(=O)[nH]c2=O)[C@H](O)[C@@H]1O)OP(=O)(O)OP(=O)(O)OC[C@H]1O[C@@H](n2ccc(=O)[nH]c2=O)[C@H](O)[C@@H]1O.CCCCN(CCCC)CCCC.CCCCN(CCCC)CCCC.CCCCN(CCCC)CCCC.CCCCN(CCCC)CCCC (stereo in doubt; 7A) . Reported metabolised at 20 min?
Response line: 3

Prompt line: Item under review: Nc1ncnc2c1ncn2[C@@H]1O[C@H](COP(=O)(O)OP(=O)(O)OP(=O)(O)OP(=O)(O)OC[C@H]2O[C@@H](n3ccc(=O)[nH]c3=O)[C@H](O)[C@@H]2O)[C@@H](O)[C@H]1O . Reported metabolised at 20 min?
Response line: 18

* * *

system.tested: P2Y purinoceptor 1 (Meleagris gallopavo) (UniProt P49652)
Sequence (P49652 whole entry): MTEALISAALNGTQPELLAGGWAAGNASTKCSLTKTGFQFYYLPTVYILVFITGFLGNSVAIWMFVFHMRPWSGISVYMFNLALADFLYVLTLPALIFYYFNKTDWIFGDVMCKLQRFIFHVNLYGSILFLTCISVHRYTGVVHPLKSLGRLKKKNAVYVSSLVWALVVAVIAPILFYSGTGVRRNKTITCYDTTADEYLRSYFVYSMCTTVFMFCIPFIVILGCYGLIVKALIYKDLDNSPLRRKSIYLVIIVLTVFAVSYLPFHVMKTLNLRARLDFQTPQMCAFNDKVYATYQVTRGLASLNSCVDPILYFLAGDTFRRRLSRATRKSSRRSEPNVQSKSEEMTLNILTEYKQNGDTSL
test.name: Antagonist activity at turkey P2Y purinoceptor 1 expressed in human 1321N1 cells assessed as inhibition of 2-Sme-ADP-induced increase in intracellular calcium concentration by spectrofluorimetry
Assay type: functional, cell-based
Activity calls are given as the source filed them. The rule behind the calls is not given here.
recorded.metric: Activity

compound: BP(=O)(OP(=O)(O)OC[C@H]1O[C@@H](n2cnc3c(N)ncnc32)[C@H](O)[C@@H]1O)OP(=O)(O)OP(=O)(O)OC[C@H]1O[C@@H](n2cnc3c(N)ncnc32)[C@H](O)[C@@H]1O.CCCCN(CCCC)CCCC.CCCCN(CCCC)CCCC.CCCCN(CCCC)CCCC.CCCCN(CCCC)CCCC (stereo in doubt; 6A)
system.tested: P2Y purinoceptor 1 (Meleagris gallopavo) (UniProt P49652)
reported: inactive
--
compound: BP(=O)(OC[C@H]1O[C@@H](n2ccc(=O)[nH]c2=O)[C@H](O)[C@@H]1O)OP(=O)(O)OP(=O)(O)OP(=O)(O)OC[C@H]1O[C@@H](n2ccc(=O)[nH]c2=O)[C@H](O)[C@@H]1O.CCCCN(CCCC)CCCC.CCCCN(CCCC)CCCC.CCCCN(CCCC)CCCC.CCCCN(CCCC)CCCC (stereo in doubt; 13A)
system.tested: P2Y purinoceptor 1 (Meleagris gallopavo) (UniProt P49652)
reported: inactive
--
compound: BP(=O)(OP(=O)(O)OC[C@H]1O[C@@H](n2cnc3c(N)ncnc32)[C@H](O)[C@@H]1O)OP(=O)(O)OP(=O)(O)OC[C@H]1O[C@@H](n2ccc(=O)[nH]c2=O)[C@H](O)[C@@H]1O.CCCCN(CCCC)CCCC.CCCCN(CCCC)CCCC.CCCCN(CCCC)CCCC.CCCCN(CCCC)CCCC (stereo in doubt; 8A)
system.tested: P2Y purinoceptor 1 (Meleagris gallopavo) (UniProt P49652)
reported: inactive

* * *

system.tested: P2Y purinoceptor 2 (Homo sapiens)
test.name: Agonist activity at human P2Y purinoceptor 2 expressed in human 1321N1 cells assessed as increase in intracellular calcium concentration by spectrofluorimetry
Assay type: functional, cell-based
measurement.parameters: read-out: EC50
recorded.metric: pEC50
Notebook: values listed as pEC50 are -log10 of the concentration (mol/L).

Solved cases below.
compound: BP(=O)(OC[C@H]1O[C@@H](n2ccc(=O)[nH]c2=O)[C@H](O)[C@@H]1O)OP(=O)(O)OP(=O)(O)OP(=O)(O)OC[C@H]1O[C@@H](n2ccc(=O)[nH]c2=O)[C@H](O)[C@@H]1O.CCCCN(CCCC)CCCC.CCCCN(CCCC)CCCC.CCCCN(CCCC)CCCC.CCCCN(CCCC)CCCC (stereo in doubt; 13B)
pEC50: 4.61

compound: BP(=O)(OC[C@H]1O[C@@H](n2cnc3c(N)ncnc32)[C@H](O)[C@@H]1O)OP(=O)(O)OP(=O)(O)OP(=O)(O)OC[C@H]1O[C@@H](n2cnc3c(N)ncnc32)[C@H](O)[C@@H]1O.CCCCN(CCCC)CCCC.CCCCN(CCCC)CCCC.CCCCN(CCCC)CCCC.CCCCN(CCCC)CCCC (stereo in doubt; 12B)
pEC50: 4.19

Prompt line: Item under review: BP(=O)(OP(=O)(O)OC[C@H]1O[C@@H](n2cnc3c(N)ncnc32)[C@H](O)[C@@H]1O)OP(=O)(O)OP(=O)(O)OC[C@H]1O[C@@H](n2ccc(=O)[nH]c2=O)[C@H](O)[C@@H]1O.CCCCN(CCCC)CCCC.CCCCN(CCCC)CCCC.CCCCN(CCCC)CCCC.CCCCN(CCCC)CCCC (stereo in doubt; 8B) . Reported pEC50?
Response line: 4.19

Prompt line: Item under review: BP(=O)(OC[C@H]1O[C@@H](n2cnc3c(N)ncnc32)[C@H](O)[C@@H]1O)OP(=O)(O)OP(=O)(O)OP(=O)(O)OC[C@H]1O[C@@H](n2cnc3c(N)ncnc32)[C@H](O)[C@@H]1O.CCCCN(CCCC)CCCC.CCCCN(CCCC)CCCC.CCCCN(CCCC)CCCC.CCCCN(CCCC)CCCC (stereo in doubt; 12A) . Reported pEC50?
Response line: 4.59
